target: USP1/UAF1 enzyme (Homo sapiens, UniProt O94782); experiment: USP1/UAF1 deubiquitination assay (ubiquitin-rhodamine 110 substrate); conditions: read-out: USP1 IC50 (Ub-Rho)
Sequence (O94782 whole entry): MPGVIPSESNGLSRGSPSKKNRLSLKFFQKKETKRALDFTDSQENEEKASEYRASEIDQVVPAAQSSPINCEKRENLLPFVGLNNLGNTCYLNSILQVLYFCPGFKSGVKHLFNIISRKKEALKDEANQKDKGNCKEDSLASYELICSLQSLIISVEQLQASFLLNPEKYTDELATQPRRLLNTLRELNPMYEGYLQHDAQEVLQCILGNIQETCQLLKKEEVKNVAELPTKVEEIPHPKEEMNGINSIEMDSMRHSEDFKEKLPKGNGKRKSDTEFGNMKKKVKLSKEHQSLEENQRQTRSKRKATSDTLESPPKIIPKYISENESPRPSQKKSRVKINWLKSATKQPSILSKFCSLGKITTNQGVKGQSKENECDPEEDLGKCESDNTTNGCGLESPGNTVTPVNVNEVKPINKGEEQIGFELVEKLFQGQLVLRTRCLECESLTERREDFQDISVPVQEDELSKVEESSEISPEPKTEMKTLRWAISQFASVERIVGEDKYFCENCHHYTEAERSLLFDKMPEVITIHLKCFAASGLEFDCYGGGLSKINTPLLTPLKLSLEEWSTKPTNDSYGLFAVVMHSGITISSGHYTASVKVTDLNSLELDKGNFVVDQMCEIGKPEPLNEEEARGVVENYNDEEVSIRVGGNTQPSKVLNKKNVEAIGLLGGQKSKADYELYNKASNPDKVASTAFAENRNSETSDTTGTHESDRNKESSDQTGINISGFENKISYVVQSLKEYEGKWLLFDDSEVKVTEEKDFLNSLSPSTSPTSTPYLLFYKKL
Sequence (Q8TAF3 whole entry partner): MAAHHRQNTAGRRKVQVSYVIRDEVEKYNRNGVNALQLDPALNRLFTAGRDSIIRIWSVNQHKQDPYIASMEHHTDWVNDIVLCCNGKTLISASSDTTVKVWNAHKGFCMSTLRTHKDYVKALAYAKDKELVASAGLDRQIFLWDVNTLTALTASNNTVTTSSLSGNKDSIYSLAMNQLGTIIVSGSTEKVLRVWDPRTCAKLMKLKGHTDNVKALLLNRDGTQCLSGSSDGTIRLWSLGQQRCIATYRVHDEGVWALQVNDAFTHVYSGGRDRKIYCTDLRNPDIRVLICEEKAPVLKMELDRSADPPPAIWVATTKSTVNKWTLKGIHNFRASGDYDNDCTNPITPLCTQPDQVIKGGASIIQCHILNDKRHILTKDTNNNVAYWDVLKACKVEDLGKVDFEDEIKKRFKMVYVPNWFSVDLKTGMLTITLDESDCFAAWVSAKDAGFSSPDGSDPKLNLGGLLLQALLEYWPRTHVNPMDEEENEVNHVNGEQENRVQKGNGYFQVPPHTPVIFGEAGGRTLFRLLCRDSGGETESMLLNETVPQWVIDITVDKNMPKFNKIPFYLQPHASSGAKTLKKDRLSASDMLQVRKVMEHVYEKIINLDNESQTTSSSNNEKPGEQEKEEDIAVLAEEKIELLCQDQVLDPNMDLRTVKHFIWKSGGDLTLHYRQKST
IC50 for assorted compounds
QUANTITY: IC50

compound="Cc1cc(C(F)(F)F)nn1-c1ccc(NC2CCCn3nc(-c4c(Cl)cnn4C(C)C)cc32)cc1 (centres unmarked)" quantity=IC50 val="< 0.1 µM"
compound=COc1cccnc1-c1ccc(CN2C(=O)CCn3nc(-c4c(Cl)cnn4C(C)C)cc32)cc1Cl quantity=IC50 val="< 0.1 µM"
compound=CCn1cc(C(F)(F)F)nc1-c1ccc(CN2C(=O)CCn3nc(-c4c(OC)cnn4C(C)C)cc32)cc1 quantity=IC50 val="0.1 to 0.5 µM"
compound="COc1ncnc(C2CC2)c1-c1nc2n(n1)CCC(=O)N2C(C)c1ccc(-n2nc(C(F)(F)F)cc2OC)cc1 (centres unmarked)" quantity=IC50 val="< 0.1 µM"
compound=Cc1cnn(C(C)C)c1-c1cc2n(n1)CCC(=O)N2Cc1ccc(-n2nc(C(F)(F)F)cc2C)cc1 quantity=IC50 val="< 0.1 µM"
